- Tested on: TK-10 renal
- Experiment: NCI tumour cell line growth inhibition, 48 h
Parameter: TGI (µM)

compound=COc1ccc(C(=O)COc2cccc(/C=C3\COc4ccc5ccccc5c4C3=O)c2)cc1 result_operator=> measured_result=100
compound="C=C(C)C1CC=C(C)C(=O)C1 (stereo unspecified)" result_operator=> measured_result=100
compound=CN(C)CC/C(=N\Nc1c(Cl)cccc1Cl)c1ccccc1 result_operator== measured_result=30.9
compound=Fc1cc(F)c(COc2cc(Cn3cnc4c(Cl)nc(Cl)nc43)ccc2C23CC4CC(CC(C4)C2)C3)cc1F result_operator== measured_result=31.1
compound="O=C1CC(Br)c2c(Br)sc(Br)c21 (stereo unspecified)" result_operator== measured_result=32.4
compound=CC(=O)c1c(-c2ccc(Cl)cc2)c(-c2ccc(Cl)cc2)n[nH]c1=O result_operator=> measured_result=100
compound=CCN1C(=O)CNc2ncc(-c3ccc(-c4ncn[nH]4)nc3C)nc21 result_operator== measured_result=1.36
compound=Cc1ccc(-c2c(C#N)c(-c3ccccc3)n(NS(=O)(=O)c3ccc(C)cc3)c(=O)c2C#N)cc1 result_operator=> measured_result=100
compound=COC(=O)/C(C)=N/NC(=S)SC result_operator=> measured_result=100
compound=Cc1ccc(C(=NN=C(N)N)c2ccc(C)cc2)cc1 result_operator== measured_result=11.4
compound=Clc1nc(Cl)c2ncn(Cc3cccc(COc4cccc(OCc5cccc(Cn6cnc7c(Cl)nc(Cl)nc76)c5)c4)c3)c2n1 result_operator=> measured_result=100

---

- Test system: HS 578T breast
- Experiment: NCI tumour cell line growth inhibition, 48 h; in the data active = GI50 below about 0.43 µM; inactive = the rest
Possible outcomes: 1 = active, 0 = inactive

smiles_input=O=C(c1cccc(O)c1O)c1cn(Cc2ccc(F)cc2)c2cccc(O)c12 assigned_category=0
smiles_input=NC(N)=NCCCn1c2c(c3ccccc3c1=O)C(=O)c1ccccc1-2 assigned_category=0
smiles_input=NC(=S)N/N=C/c1ccc(OC(=O)COc2ccc(Cl)cc2)cn1 assigned_category=0
smiles_input=COc1cc[nH]c1/C=C1\C(=O)Nc2ccccc21 assigned_category=0
smiles_input=CCCCN=C(N)c1ccc(OCCSCCOc2ccc(C(N)=NCCCC)cc2)cc1 assigned_category=0
smiles_input=CN(C)CCOc1ccc(/C(=C(/CCCCCCCCCC[P+](c2ccccc2)(c2ccccc2)c2ccccc2)c2ccccc2)c2ccccc2)cc1 assigned_category=1
smiles_input=COc1ccc(C(=O)COc2cccc(/C=C3\COc4ccc5ccccc5c4C3=O)c2)cc1 assigned_category=0
smiles_input=CCS(=O)(=O)c1ccc(OC)c(Nc2ncc(-c3cccc(OC)c3)o2)c1 assigned_category=0
smiles_input=CC/C=C\C[C@@H]1C/C=C2/C(=O)C=C[C@H]2C/C=C\CCCC(=O)O1 assigned_category=0
smiles_input=CCN(CC)c1sc(N(CC)CC)c2c1SSSSS2 assigned_category=0
smiles_input=CCC#CC[C@H]1C/C=C2/C(=O)C=C[C@@H]2C/C=C\CCCC(=O)O1 assigned_category=0

---

Each entry below lists one item and its recorded TGI value.
- Test system: COLO 205 colon
- Experiment: NCI tumour cell line growth inhibition, 48 h
Parameter: TGI (µM)

molecule="C=C(C)C1CC=C(C)C(=O)C1 (stereo not given)" result_operator=> measured_result=100
molecule=O=[N+]([O-])/C(C(Cl)=C(Cl)Cl)=C1\Nc2ccc([N+](=O)[O-])cc2N1 result_operator=> measured_result=100
molecule="CC(C)CCCC(C)[C@H]1CC[C@H]2n3c(nnc3-c3ccccc3)CCC[C@]12C (stereo not given in full)" result_operator== measured_result=14.8
molecule="O=C1c2c(Br)sc(Br)c2C(NC(=O)C(F)(F)F)C1O (stereo not given)" result_operator== measured_result=33.4
molecule=NC(=S)N/N=C/c1ccc(OC(=O)COc2ccc(Cl)cc2)cn1 result_operator=> measured_result=100
molecule=COc1cc(NC(=O)c2cc(O)c(CC=C(C)C)c(O)c2)cc2c1O[C@]1(C)CC[C@@H](O)C(C)(C)[C@H]1C2 result_operator== measured_result=5.5
molecule="CC1=C(C)CC2(CCCCC2=O)S(=O)C1 (stereo not given)" result_operator=> measured_result=100
molecule=CC1=CC[C@H](C[C@H](C#CCCCC2OCCO2)O[Si](C(C)C)(C(C)C)C(C)C)C(=O)CC1 result_operator=> measured_result=100
molecule="CCCCCCCC(CC(=O)NC(CO)C(=O)NC(CO)CC(C)C)OC(=O)CC(CCCCCCC)OC(=O)CC(CCCCCCC)OC1OC(C)C(O)C(OC2OC(C)C(O)C(OC(C)=O)C2O)C1O (stereo not given)" result_operator== measured_result=18.9
molecule="COc1ccc(C(C)c2cc3c(cc2OC)OCO3)cc1 (stereo not given)" result_operator== measured_result=0.927
molecule="CC12CCCC(O)C1CCC1=CC3(CCC12)SCCS3 (stereo not given)" result_operator=> measured_result=10
molecule="COc1ccc(CNc2ccn(C3OC(CO)C(O)C3O)c(=O)n2)cc1 (stereo not given)" result_operator=> measured_result=100
molecule="NC(CSS(=O)(=O)O)=NC1CC2CCC1C2 (stereo not given)" result_operator=> measured_result=100
molecule=CC(C)(C)OC(=O)Cc1ccc2c(ccn2Cc2ccccc2)c1 result_operator=> measured_result=100
molecule="NC(=O)NC1NC(=O)NC1=O (stereo not given)" result_operator=> measured_result=100
molecule="COc1ccc(CC2Cc3ccccc3CCN2)cc1OC (stereo not given)" result_operator== measured_result=21.4
molecule=Cc1ccc(Nc2nc3c(s2)C(=O)c2ccccc2C3=O)c(C)c1 result_operator== measured_result=35.2
molecule=O=C(Nc1ccc(Cl)cc1)c1cc(S(=O)(=O)Nc2n[nH]c(Nc3ccc4ccccc4c3)n2)c(SSc2cc(Cl)c(C(=O)Nc3ccc(Cl)cc3)cc2S(=O)(=O)Nc2n[nH]c(Nc3ccc4ccccc4c3)n2)cc1Cl result_operator== measured_result=38.8
molecule=CC1=C2C(=O)O[C@@H](c3ccoc3)[C@]2(C)CCC1 result_operator=> measured_result=100
molecule=CC(=O)c1c(-c2ccc(Cl)cc2)c(-c2ccc(Cl)cc2)n[nH]c1=O result_operator=> measured_result=100
